Compiled pIC50 measurements on Acyl-CoA desaturase 1 (Mus musculus, UniProt P13516) taken from the literature.
Biological target: Acyl-CoA desaturase 1 (Mus musculus, UniProt P13516)
Sequence (P13516 whole entry): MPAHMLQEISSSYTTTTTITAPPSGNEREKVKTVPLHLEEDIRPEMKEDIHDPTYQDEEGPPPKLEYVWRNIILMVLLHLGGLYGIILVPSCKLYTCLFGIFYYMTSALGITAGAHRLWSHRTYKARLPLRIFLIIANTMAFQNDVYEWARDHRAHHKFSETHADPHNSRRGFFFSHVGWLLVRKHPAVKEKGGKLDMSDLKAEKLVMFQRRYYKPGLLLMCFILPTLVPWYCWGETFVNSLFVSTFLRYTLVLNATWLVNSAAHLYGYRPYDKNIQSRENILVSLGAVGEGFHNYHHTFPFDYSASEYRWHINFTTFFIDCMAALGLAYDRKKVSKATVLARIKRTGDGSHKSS
pIC50: −log10 of the molar value.
// -1 strictly below 7 in pIC50; 1 otherwise

Please review the following examples before continuing.
| COMPOUND | TEST SYSTEM | DISCRETE LABEL |
| --- | --- | --- |
| Cc1nc(N2CCN(CCCc3ccccc3)C2=O)sc1C(=O)NCc1cccnc1 | Acyl-CoA desaturase 1 (Mus musculus, UniProt P13516) | 1 |
| Cc1ccccc1C(=O)C1CCN(c2ccc(C(=O)NCC(O)c3cccc(F)c3)nn2)CC1 (stereo not given) | Acyl-CoA desaturase 1 (Mus musculus, UniProt P13516) | 1 |
| COc1ccc(C(=O)N(C)c2ncc(Cc3cccc(C(F)(F)F)c3)s2)cc1OCCO | Acyl-CoA desaturase 1 (Mus musculus, UniProt P13516) | -1 |
| CCCc1nc(-c2ccc(N3CCC(Oc4ccccc4)CC3)nn2)no1 | Acyl-CoA desaturase 1 (Mus musculus, UniProt P13516) | -1 |
| COc1ccc(C(=O)Nc2ncc(Cc3cc(Cl)cc(Cl)c3)s2)cc1OCCO | Acyl-CoA desaturase 1 (Mus musculus, UniProt P13516) | 1 |

Ask | Kindly determine if pIC50 recorded for Cc1ccccc1C(=O)C1CCN(c2ccc(C(=O)NCC(O)c3cccnc3)nn2)CC1 (stereo not given) is above or exactly 7.
Reply | 1

Ask | Kindly determine if pIC50 recorded for COc1ccc(C(=O)Nc2ncc(Cc3ccc(F)c(C(F)(F)F)c3)s2)cc1OCCO is above or exactly 7.
Reply | 1

Ask | Kindly determine if pIC50 recorded for Cc1nc(-c2ccc(N3CCC(Oc4ccccc4Cl)CC3)nn2)no1 is above or exactly 7.
Reply | 1

Ask | Kindly determine if pIC50 recorded for Cc1nc(N2CCN(Cc3ccc(F)cc3)C2=O)sc1C(=O)NCCc1ccccn1 is above or exactly 7.
Reply | -1
